- experiment: UV-VIS screening of binding and demetallation of Ni(II)-protoporphyrin (IX)
- Assay type: biochemical
- condition label: crude protein lysate, 50 μM porphyrin, 24 hrs, room temperature
# maps each entry to its reduction of Ni(II)-protoporphyrin (IX) Soret band (specific demetallation)
Give the value in % but do not write % after it.

Exercise: Fill in: reduction of Ni(II)-protoporphyrin (IX) Soret band (specific demetallation) of B. japonicum HypB: nickel chaperone HypB from B. japonicum, SEQ ID NO 3 (protein, listed as Helicobacter pylori) MHEYSVVSSLIALCEEHAKKNQAHKIERVVVGIGERSAMDKSLFVSAFETFREESLVCKDAVLDIVDEKVELECKDCSHVFKPNALDYGVCEKCHSKNVVITQGNEMRLLSLEMLAE is ___
Key: 29

Exercise: Fill in: reduction of Ni(II)-protoporphyrin (IX) Soret band (specific demetallation) of E. coli HypB: nickel chaperone HypB from E. coli, SEQ ID NO 2 (protein, listed as Escherichia coli) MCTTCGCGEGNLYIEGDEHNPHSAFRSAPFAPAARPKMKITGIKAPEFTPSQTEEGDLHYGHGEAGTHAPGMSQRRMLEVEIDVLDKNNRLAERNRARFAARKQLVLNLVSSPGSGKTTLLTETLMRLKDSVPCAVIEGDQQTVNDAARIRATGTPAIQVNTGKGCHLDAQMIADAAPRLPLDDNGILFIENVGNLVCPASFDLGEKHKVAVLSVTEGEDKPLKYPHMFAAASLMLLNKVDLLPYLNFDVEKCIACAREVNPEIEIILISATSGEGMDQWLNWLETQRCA is ___
Key: 17

Exercise: Fill in: reduction of Ni(II)-protoporphyrin (IX) Soret band (specific demetallation) of SlyD: nickel chaperone from E. coli, SEQ ID NO 4 (protein, listed as Escherichia coli) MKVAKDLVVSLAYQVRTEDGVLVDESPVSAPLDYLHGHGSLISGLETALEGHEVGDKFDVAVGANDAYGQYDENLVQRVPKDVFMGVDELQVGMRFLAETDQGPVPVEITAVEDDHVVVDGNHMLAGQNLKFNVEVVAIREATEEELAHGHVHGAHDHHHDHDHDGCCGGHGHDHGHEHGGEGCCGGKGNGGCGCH is ___
Key: 12
